biological target: furin, P09958; assay: furin cleavage Z-score vs untreated control; higher = more cleavage, active = 3.5 or more, inactive = 1 or less, 8 variable residues between constant flanks; conditions: 30 min;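 further: purified furin at 1:10 enzyme:substrate in 50 mM HEPES pH 7.5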
Sequence (P09958 whole entry): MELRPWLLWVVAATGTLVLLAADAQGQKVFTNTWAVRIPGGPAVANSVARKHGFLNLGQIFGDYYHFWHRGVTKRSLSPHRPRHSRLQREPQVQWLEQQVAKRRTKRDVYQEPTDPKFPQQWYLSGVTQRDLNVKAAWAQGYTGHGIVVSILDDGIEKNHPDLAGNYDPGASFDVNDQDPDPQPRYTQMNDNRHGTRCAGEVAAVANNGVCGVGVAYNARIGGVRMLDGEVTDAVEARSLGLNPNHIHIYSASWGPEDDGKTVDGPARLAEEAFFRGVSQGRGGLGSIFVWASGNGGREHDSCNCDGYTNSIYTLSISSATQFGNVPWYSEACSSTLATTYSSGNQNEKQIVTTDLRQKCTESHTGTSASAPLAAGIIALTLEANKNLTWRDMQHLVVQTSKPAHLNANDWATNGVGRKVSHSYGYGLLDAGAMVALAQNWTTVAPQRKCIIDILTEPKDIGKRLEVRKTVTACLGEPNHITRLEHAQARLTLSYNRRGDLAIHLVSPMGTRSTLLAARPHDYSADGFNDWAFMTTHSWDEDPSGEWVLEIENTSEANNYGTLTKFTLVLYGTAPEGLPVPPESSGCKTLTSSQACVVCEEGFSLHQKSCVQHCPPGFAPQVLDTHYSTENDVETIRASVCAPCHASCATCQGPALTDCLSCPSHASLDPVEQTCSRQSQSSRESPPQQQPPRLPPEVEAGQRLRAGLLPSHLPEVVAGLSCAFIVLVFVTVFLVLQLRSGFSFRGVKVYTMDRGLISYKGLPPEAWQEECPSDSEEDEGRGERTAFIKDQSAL
The other results are listed elsewhere or left out. How many sequences the whole screen found active is unknown.
Outcomes: active, inactive

CAPAQRLARSAGNASASA [FS-1471] :: active
CASTPCSALLAGNASASA [HC2545] :: inactive
CAGDFHYVTGAGNASASA [HC1209] :: inactive
CAFTFSPRRHAGNASASA [HC306] :: inactive
CAAEEDEREIAGNASASA [HC1291] :: inactive
CAKPSKLKRSAGNASASA [FS-546] :: active
CASHARPRWIAGNASASA [HC1653] :: inactive
CAVVWCSMSYAGNASASA [HC2028] :: inactive
CALEDNVTPIAGNASASA [HC1434] :: inactive
CASSKRNRRHAGNASASA [FS-1418] :: active
CASSKRAEAPAGNASASA [FS-2852] :: inactive
CAEVDCHRPSAGNASASA [HC2351] :: inactive
CAVQCCSMSYAGNASASA [HC2022] :: inactive
